- ASSAY: Cytotoxicity against human MRC5 cells assessed as growth inhibition
- Format: cell-based
CC50 by entry:
Express your answer in µM, writing the number without its unit.

Please report the measured CC50 for COc1ccc(C2=NN(C3CCCCCC3)C(=O)[C@@H]3CC=CC[C@H]23)cc1OCCCCOc1ccc(-n2ccnc2)cc1 (racemic)
39.8

----------
- TESTED_ON: High affinity cAMP-specific and IBMX-insensitive 3',5'-cyclic phosphodiesterase 8B (Homo sapiens, UniProt O95263)
- Sequence (O95263 whole entry): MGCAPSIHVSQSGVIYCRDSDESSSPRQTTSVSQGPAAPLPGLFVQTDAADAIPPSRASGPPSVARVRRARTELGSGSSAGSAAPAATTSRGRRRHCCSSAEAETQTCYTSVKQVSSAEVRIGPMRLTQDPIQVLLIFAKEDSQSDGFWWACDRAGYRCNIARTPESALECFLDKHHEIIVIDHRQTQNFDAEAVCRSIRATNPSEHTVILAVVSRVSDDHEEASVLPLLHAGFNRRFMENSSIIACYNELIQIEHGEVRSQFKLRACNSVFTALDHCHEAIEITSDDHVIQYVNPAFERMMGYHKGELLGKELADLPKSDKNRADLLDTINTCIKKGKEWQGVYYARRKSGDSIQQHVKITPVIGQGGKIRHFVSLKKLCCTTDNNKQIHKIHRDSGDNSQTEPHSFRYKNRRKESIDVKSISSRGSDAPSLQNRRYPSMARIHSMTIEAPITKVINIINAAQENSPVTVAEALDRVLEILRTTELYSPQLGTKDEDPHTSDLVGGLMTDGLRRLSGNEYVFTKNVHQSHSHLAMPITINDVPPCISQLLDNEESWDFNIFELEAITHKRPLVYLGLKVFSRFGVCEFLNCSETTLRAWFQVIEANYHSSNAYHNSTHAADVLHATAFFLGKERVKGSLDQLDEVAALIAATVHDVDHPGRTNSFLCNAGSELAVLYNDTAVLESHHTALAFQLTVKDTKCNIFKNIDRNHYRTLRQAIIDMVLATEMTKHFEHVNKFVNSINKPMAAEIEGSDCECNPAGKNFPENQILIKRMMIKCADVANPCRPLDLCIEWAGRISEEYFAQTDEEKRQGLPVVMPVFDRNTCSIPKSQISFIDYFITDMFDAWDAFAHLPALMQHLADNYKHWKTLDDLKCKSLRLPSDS
- ASSAY: Inhibition of full length human recombinant PDE8B using [3H]-cAMP as substrate by scintillation proximity assay
ASSAY_READOUT: pIC50
# pIC50 = -log10(concentration in molar units)

Indicate its recorded pIC50; the compound in question is COc1ccc(C2=NN(C3CCCCCC3)C(=O)[C@@H]3CC=CC[C@H]23)cc1OCCCCOc1ccc(-c2nnn[nH]2)cc1 (racemic)
5.40
